Molecular target: MAGL (Homo sapiens)
Construct: Proteomes (human prefrontal cortex or cell membrane fractions); from tissue
Sequence (Q99685 1-303): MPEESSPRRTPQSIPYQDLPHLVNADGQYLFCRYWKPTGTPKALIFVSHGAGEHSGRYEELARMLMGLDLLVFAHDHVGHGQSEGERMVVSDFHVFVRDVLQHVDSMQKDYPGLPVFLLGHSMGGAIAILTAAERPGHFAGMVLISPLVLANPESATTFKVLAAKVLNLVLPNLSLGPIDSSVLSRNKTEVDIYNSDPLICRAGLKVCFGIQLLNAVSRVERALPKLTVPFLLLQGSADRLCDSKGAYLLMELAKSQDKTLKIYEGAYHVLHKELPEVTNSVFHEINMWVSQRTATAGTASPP
Test: In vitro competitive activity-based protein profiling (gel-based, FP-Rh or HT-01 probe)
Assay type: biochemical
Conditions: PC3 proteome, read-out: IC50 MGLL PC3 (Human)
Method: Compounds are tested to assess their MAGL and serine hydrolase activity using the following in vitro and in vivo assays. Proteomes (human prefrontal cortex or cell membrane fractions) (50 μL, 1.0 mg/mL total protein concentration) were preincubated with varying concentrations of inhibitors at 37° C. After 30 min, FP—Rh or HT-01 (1.0 μL, 50 μM in DMSO) was added and the mixture was incubated for another 30 min at room temperature. […]
pIC50: −log10 of the molar value.
Assay endpoint: pIC50

Exercise: Fill in: pIC50 of CC(=O)N1CCC2(CCN(c3cc(C(F)(F)F)ccc3CN3CCN(C(=O)OC(C(F)(F)F)C(F)(F)F)CC3)CC2)C1 [Example 189] is ___
Key: > 7.00

Exercise: Fill in: pIC50 of O=C(O)CN1CCC2(CC1)CN(c1cc(C(F)(F)F)ccc1CN1CCCC13CCN(C(=O)OC(C(F)(F)F)C(F)(F)F)CC3)C2 [Example 156] is ___
Key: > 7.00

Exercise: Fill in: pIC50 of CC1(C(=O)O)CCCN(c2cc(CN3CC4(CCN(C(=O)OC(C(F)(F)F)C(F)(F)F)CC4)C3)cc(C(F)(F)F)c2)C1 (stereo not shown) [Example 114] is ___
Key: > 7.00

Exercise: Fill in: pIC50 of O=C(O)C1CCN(c2cc(S(F)(F)(F)(F)F)ccc2CN2CCC3(CC2)CCN(C(=O)OC(C(F)(F)F)C(F)(F)F)C3)CC1 [Example 222] is ___
Key: 6.00 to 7.00

Exercise: Fill in: pIC50 of O=C(O)C1CCN(c2c(Cl)cccc2CN2CCC3(CC2)CCN(C(=O)OC(C(F)(F)F)C(F)(F)F)C3)CC1 [Example 218] is ___
Key: > 7.00

Exercise: Fill in: pIC50 of O=C(O)CN1CC2CC1CN2c1cc(CN2CCCC23CCN(C(=O)OC(C(F)(F)F)C(F)(F)F)CC3)cc(C(F)(F)F)c1 (stereo not shown) [Example 128] is ___
Key: > 7.00

Exercise: Fill in: pIC50 of CC1(OCc2cc(N3CCC(C(=O)O)CC3)cc(C(F)(F)F)c2)CCN(C(=O)OC(C(F)(F)F)C(F)(F)F)CC1 [Example 227] is ___
Key: > 7.00

Exercise: Fill in: pIC50 of O=C(O)CN1CCC2(CCN(c3cc(C(F)(F)F)ccc3CN3CCCC34CCN(C(=O)OC(C(F)(F)F)C(F)(F)F)CC4)CC2)C1 [Example 153] is ___
Key: > 7.00

Exercise: Fill in: pIC50 of CN(Cc1ccc(C(F)(F)F)cc1OCC(=O)O)C1(C)CCN(C(=O)OC(C(F)(F)F)C(F)(F)F)CC1 [Example 136] is ___
Key: > 7.00

Exercise: Fill in: pIC50 of CS(=O)(=O)N1CC2(CCN(c3cc(C(F)(F)F)ccc3CN3CCN(C(=O)OC(C(F)(F)F)C(F)(F)F)CC3)C2)C1 [Example 186] is ___
Key: > 7.00

Others:
Exercise: Fill in: pIC50 of CN(Cc1ccc(Cl)cc1C1(C(=O)O)CCCC1)C1(C)CCN(C(=O)OC(C(F)(F)F)C(F)(F)F)CC1 [Example 142] is ___
Key: > 7.00

Exercise: Fill in: pIC50 of O=C(O)C1CCN(c2cc(F)ccc2CN2CC3(CCN(C(=O)OC(C(F)(F)F)C(F)(F)F)CC3)C2)CC1 [Example 123] is ___
Key: 6.00 to 7.00

Exercise: Fill in: pIC50 of O=C(O)C1CCN(c2cc(Cl)ccc2CN2CC3(CCN(C(=O)OC(C(F)(F)F)C(F)(F)F)CC3)C2)CC1 [Example 122] is ___
Key: > 7.00

Source: patent US20210214375A1
